- TARGET_OF_ASSAY: urease (Canavalia ensiformis, UniProt P07374)
- Sequence (P07374 whole entry, looked up): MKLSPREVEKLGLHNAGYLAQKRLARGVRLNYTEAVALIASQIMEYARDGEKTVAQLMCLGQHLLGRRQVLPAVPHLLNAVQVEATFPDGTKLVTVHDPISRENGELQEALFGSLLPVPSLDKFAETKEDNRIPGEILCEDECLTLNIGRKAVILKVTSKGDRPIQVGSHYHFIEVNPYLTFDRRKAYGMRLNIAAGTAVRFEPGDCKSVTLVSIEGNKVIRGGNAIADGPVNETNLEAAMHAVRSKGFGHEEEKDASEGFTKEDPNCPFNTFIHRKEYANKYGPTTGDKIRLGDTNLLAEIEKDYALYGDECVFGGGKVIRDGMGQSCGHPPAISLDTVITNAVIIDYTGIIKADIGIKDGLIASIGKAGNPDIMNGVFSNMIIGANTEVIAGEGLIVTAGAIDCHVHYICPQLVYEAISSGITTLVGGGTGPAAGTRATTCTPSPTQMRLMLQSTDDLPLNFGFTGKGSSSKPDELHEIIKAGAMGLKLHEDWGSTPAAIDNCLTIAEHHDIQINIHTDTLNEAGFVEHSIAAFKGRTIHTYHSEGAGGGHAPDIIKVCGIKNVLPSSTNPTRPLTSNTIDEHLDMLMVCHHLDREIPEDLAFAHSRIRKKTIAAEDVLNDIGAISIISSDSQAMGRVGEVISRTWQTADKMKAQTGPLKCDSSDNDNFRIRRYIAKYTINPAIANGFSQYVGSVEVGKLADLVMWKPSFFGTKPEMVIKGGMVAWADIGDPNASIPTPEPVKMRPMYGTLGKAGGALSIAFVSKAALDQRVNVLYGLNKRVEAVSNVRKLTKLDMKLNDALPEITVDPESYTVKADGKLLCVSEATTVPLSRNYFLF
- Type: biochemical, sword bean
METRIC: Enzyme activity retention rate(%) (after 30 days) Stabilizer: Enzyme = 1:1
# unit: % | format: bare number

Exercise: Tell me the measured Enzyme activity retention rate(%) (after 30 days) Stabilizer: Enzyme = 1:1 of CCCCn1cc[n+](C)c1.[Br-] [Comparative example 3, BMI-Br, reference compound] , please.
Key: 0

###

- RUN_DESCRIPTION: Metal oxide dispersibility test (zirconium oxide)
- Type: physicochemical
- ASSAY_CONDITIONS: 0.25 g compound, 0.50 g water, 0.10 g zirconium oxide (IV); visual
METRIC: Zirconium oxide dispersibility

Example entries and their recorded answers appear below.
| COMPOUND | Zirconium oxide dispersibility |
| --- | --- |
| NC(CO)(CO)CO [Working example 48] | ○ ○ ○ ○ |
| NC(CO)(CO)CO [Working example 36] | ○ ○ ○ ○ |
| NC(CO)(CO)CO [Working example 109] | ○ ○ ○ ○ |
| NC(CO)(CO)CO [Working example 28] | ○ ○ ○ ○ |
| CCC(N)(CO)CO | ○ ○ |

Exercise: Tell me the measured Zirconium oxide dispersibility of NC(CO)CO , please.
Key: ○

Reference for the values: patent US20240057587A1
